system.name: T1, Cynomolgus monkey NKp46 for immunization, screening, and testing (Kactus, NKP-CM146) (cynomolgus monkey, UniProt Q95JB9 22-254)
T1 construct: Bought protein; also called monkey NKp46 antigen protein; cynomolgus monkey NKp46 antigen
assay.notes: SPR (Biacore 8K), antibody captured on anti-human Fc, NKp46 as analyte, 1:1 fit
So I've got a bunch of binders here, and I need their Kd values.
Answer format reminder: number followed by unit.

Request: I'd like to know its Kd. The binder in question is H2-PA27 humanized antibody (antibody, human IgG1, V domains shown, not shown: constant region of human IgG1) VH: QVQLVESGGGVVQPGRSLRLSCAASGRTESWYRMGWFRQAPGKGLEVVARISGDTNIKYYAGSVKGRFTISRDNSKNTLYLQMSSLRAEDTAVYYCAADRTGATWDYWGQGTLVTVSS
Response: 23.4 nM

Request: Same question, H1-PC11 humanized antibody (antibody, human IgG1, V domains shown, not shown: constant region of human IgG1) VH: EVQLVESGGGLVQPGGSLRLSCAASPYSANSFSMAWFRQAPGKGLEGVACIQAESGSTNVAPSVKGRFTISQDNSKNTLYLQMNSLRAEDTAVYYCAAFKRNVGGCELRPEHWRFWGQGTLVTVSS this time
Response: 115 nM

Request: Can you handle H2-PA45 humanized antibody (antibody, V domains shown, not shown: constant region of human IgG1) VH: EVQLVESGGGLVQPGGSLRLSCAASGRTFSRLPMAWFRQAPGKGLEFVAAISWSGGSTYYADSMKGRFTISRDNSKNTAYLQMNSLRAEDTAVYYCAAVGDSAPYSATIVYTDARAYAYWGQGTLVTVSS next?
Response: 7.34 nM

Request: Please do the same for H2-PA31 humanized antibody (antibody, human IgG1, V domains shown, not shown: constant region of human IgG1) VH: EVQLVESGGGLVQPGGSLRLSCAVSGRTFSRLPMGWFRQAPGKGLEFVAAISWSSSTTYYADSVKGRFTISRDNSKNTAYLQMNSLRAEDTAVYYCAAVGGSLDYSATVVYTAARAYADWGQGTLVTVSS as well.
Response: 7.69 nM
